test system: Mus musculus; assay: Percentage block of the hind-limb tonic-extensor seizure was determined after application of an electric shock to mice for 240 min followed by 200 mg/kg intraperitoneal dose; format: functional
REPORTED PROPERTY: Block (%)
Report the figure in % without appending any unit label.

Observe how each entry below is paired with its result.
CC1(C)OC2C3OC(C)(C)O[C@]3(COC(=O)Nc3ccccc3)OC[C@H]2O1 (some centres undefined) :: 0
CC1(C)OC2C3OC(C)(C)O[C@]3(CO)OC[C@H]2O1 (some centres undefined) :: 0
CC1(COS(N)(=O)=O)CCCCC1 :: 20

Next up:
Q. What value of measured Block is listed for CC1(C)O[C@@H]2[C@H](O1)[C@H]1OC(C)(C)OC1O[C@@H]2COS(N)(=O)=O (some centres undefined) ?
A. 30

---

Measured Block values are reported for all entries that follow.
tested on: Mus musculus; assay: Percentage block of the hind-limb tonic-extensor seizure was determined after application of an electric shock to mice for 60 min followed by 200 mg/kg peroral dose; assay type: functional; details: route oral
Answer with the value and then the unit.

Observe how each entry below is paired with its result.
CC1(C)OC[C@@H]2O[C@@]3(COS(N)(=O)=O)OC(C)(C)OC3[C@@H]2O1 (stereo partly specified) :: 80%
CC1(C)OC2C3OC4(CCCCC4)O[C@@H]3CO[C@@]2(COS(N)(=O)=O)O1 (stereo partly specified) :: 0%
CC1(C)OC2C3OC(C)(C)O[C@]3(COS(=O)(=O)Nc3ccccc3)OC[C@H]2O1 (stereo partly specified) :: 0%
CC1(C)O[C@@H]2CO[C@@]3(COS(=O)(=O)N=[N+]=[N-])OC(C)(C)OC3[C@@H]2O1 (stereo partly specified) :: 50%
NS(=O)(=O)OCCc1ccccc1 [SULFAMIC ACID PHENETHYL ESTER] :: 100%

Q. What value of measured Block is listed for CN(C)S(=O)(=O)OC[C@@]12OC[C@H]3OC(C)(C)OC3C1OC(C)(C)O2 (stereo partly specified) ?
A. 40%

Q. Same again, this time with CNS(=O)(=O)OC[C@@]12OC[C@H]3OC(C)(C)OC3C1OC(C)(C)O2 (stereo partly specified)
A. 70%

Q. Same again, this time with CC1(C)OC2[C@H](O)[C@H](O)CO[C@@]2(COS(N)(=O)=O)O1 (stereo partly specified)
A. 0%

Q. Same again, this time with CC1(C)OCC(COS(N)(=O)=O)O1 (stereo unspecified)
A. 90%

Q. Same again, this time with NS(=O)(=O)OCC1COc2ccccc2O1 (stereo unspecified)
A. 100%

Q. Same again, this time with NS(=O)(=O)OCC(c1ccccc1)c1ccccc1
A. 70%

---

Measured Block values are reported for all entries that follow.
tested on: Mus musculus; assay: Percentage block of the hind-limb tonic-extensor seizure was determined after application of an electric shock to mice for 30 min followed by 200 mg/kg peroral dose; type: functional; conditions: route oral
Report the figure in % without appending any unit label.

NS(=O)(=O)OCC1COC2(CCCCC2)O1 (stereo not drawn) :: 70

Q. What value of measured Block is listed for CN(C)S(=O)(=O)OC[C@@]12OC[C@H]3OC(C)(C)OC3C1OC(C)(C)O2 (stereo partly drawn) ?
A. 30

Q. Same again, this time with CC1(C)O[C@@H]2CO[C@@]3(COS(=O)(=O)N=[N+]=[N-])OC(C)(C)OC3[C@@H]2O1 (stereo partly drawn)
A. 30

Q. Same again, this time with NS(=O)(=O)OCC1COc2ccccc2O1 (stereo not drawn)
A. 100

Q. Same again, this time with CC1(C)OC2[C@H](O)[C@H](O)CO[C@@]2(COS(N)(=O)=O)O1 (stereo partly drawn)
A. 0

Q. Same again, this time with CC1(C)OC[C@@H]2O[C@@]3(COS(N)(=O)=O)OC(C)(C)OC3[C@@H]2O1 (stereo partly drawn)
A. 70

Q. Same again, this time with CC1(C)C2CCC(COS(N)(=O)=O)C1C2 (stereo not drawn)
A. 10

Q. Same again, this time with CC1(C)OCC(COS(N)(=O)=O)O1 (stereo not drawn)
A. 70

Q. Same again, this time with CNS(=O)(=O)OC[C@@]12OC[C@H]3OC(C)(C)OC3C1OC(C)(C)O2 (stereo partly drawn)
A. 20

Q. Same again, this time with CC1(C)OC2C3OC4(CCCCC4)O[C@@H]3CO[C@@]2(COS(N)(=O)=O)O1 (stereo partly drawn)
A. 10

---

system: Mus musculus; test: Percentage block of the hind-limb tonic-extensor seizure was determined after application of an electric shock to mice for 60 min followed by 400 mg/kg peroral dose; format: functional; conditions: route oral
REPORTED PROPERTY: Block (%)
Report the figure in % without appending any unit label.

Observe how each entry below is paired with its result.
CC1(C)O[C@@H]2[C@H](O1)[C@H]1OC(C)(C)OC1O[C@@H]2COS(N)(=O)=O (some centres undefined) :: 80
CC1(COS(N)(=O)=O)CCCCC1 :: 40
CC1(C)OC2C3OC(C)(C)O[C@]3(COC(=O)Nc3ccccc3)OC[C@H]2O1 (some centres undefined) :: 0

Q. # value lookup — system Mus musculus, readout Block, item CC1(C)OC2C3OC(C)(C)O[C@]3(CO)OC[C@H]2O1 (some centres undefined)
A. 0

---

Measured Block values are reported for all entries that follow.
system: Mus musculus; assay: Percentage block of the hind-limb tonic-extensor seizure was determined after application of an electric shock to mice for 30 min followed by 200 mg/kg peroral dose; type: functional; details: route oral
Report the figure in % without appending any unit label.

Observe how each entry below is paired with its result.
CC1(C)OC2C3OC(C)(C)O[C@]3(COS(=O)(=O)Nc3ccccc3)OC[C@H]2O1 (stereo partly drawn) :: 0
NS(=O)(=O)OCC(c1ccccc1)c1ccccc1 :: 80

Next up:
Q. What value of measured Block is listed for NS(=O)(=O)OCCc1ccccc1 ?
A. 70
